# measured.on: EGFR (Homo sapiens, UniProt P00533)
# Sequence (P00533 669-1210): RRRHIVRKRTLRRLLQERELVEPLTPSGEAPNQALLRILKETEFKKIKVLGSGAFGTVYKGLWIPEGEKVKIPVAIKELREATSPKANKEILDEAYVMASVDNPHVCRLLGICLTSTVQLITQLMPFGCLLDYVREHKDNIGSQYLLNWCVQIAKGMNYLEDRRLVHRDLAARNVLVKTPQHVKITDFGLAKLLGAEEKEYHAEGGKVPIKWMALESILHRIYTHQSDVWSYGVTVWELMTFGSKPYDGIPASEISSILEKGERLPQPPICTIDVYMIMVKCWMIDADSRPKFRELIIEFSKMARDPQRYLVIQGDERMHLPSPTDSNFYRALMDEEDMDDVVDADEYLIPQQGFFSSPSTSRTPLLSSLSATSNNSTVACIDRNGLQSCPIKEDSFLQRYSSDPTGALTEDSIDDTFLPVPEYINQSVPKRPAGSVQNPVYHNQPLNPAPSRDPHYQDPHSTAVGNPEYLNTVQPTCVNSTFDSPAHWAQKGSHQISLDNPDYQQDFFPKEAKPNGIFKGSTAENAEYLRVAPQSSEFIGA
Answer each item with its documented IC50.
Give bare numbers, in nM.

> print(dat)
                              line.notation  measured.parameter  recorded.value
1  O=C(NN=Cc1ccc([N+](=O)[O-])cc1)c1ccc2[nH]c(-c3ccc(Cl)cc3)nc2c1                IC50             110
2  COc1ccc(C=NNC(=O)c2ccc3[nH]c(-c4ccc(Cl)cc4)nc3c2)cc1                IC50             270

# ---- query molecule ----
// query For the record "O=C(NN=Cc1ccc(Cl)cc1)c1ccc2[nH]c(-c3ccc(Cl)cc3)nc2c1" , what value of IC50 is listed for EGFR (Homo sapiens, UniProt P00533)?
// result 90
